Numbers sourced from patent US20260184780A1.

target: T1, mPAR4 (naked) peptide (mouse)
T1 construct: T0021 says only 'mouse PAR4'; also called mouse PAR4
T1 peptide: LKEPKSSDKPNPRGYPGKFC
assay.remarks: ELISA, hybridoma supernatant
observation.type: binding to mouse PAR4 ratio (ratio)
Supply the numeric figure in ratio, leaving out any unit text.

Worked examples, 3 binders total:
binder	unit.label	binding to mouse PAR4 ratio
5I.RG1.D6.C1b (antibody, IgG3, V domains shown, also called 51.RG1; MoB5I G1) VH: QVQLQQWGAGLLKPSETLSLACAISSGSFSTYFWRWIRQPPGKGLEWIGEIIHTGSTTYNPSLKSRVTISVDTSKNQLSLKLSSVTAADTAVYYCAFEYSSSGGYYYGMDVWGQGTTVTVSS VL: DIQMTQSPSSLSASVGDRVTITCRASQSISSYLNWYQQIPGKAPNLLIYAASSLRSGVPSRFSGSGSGTDFTLTISSLQPEDFATYYCQQTYSTPLTFGGGTKVEIK	ratio	9.4
5F RE6.D3.E7 (antibody, IgG2a, V domains shown, also called MoB5F E6) VH: QVQLAESGGGVVQPGRSLRVSCAASGFTFSSYGMHWVRQAPGKGLEWVAVIWYDGTKKYYADSLKGRFTISRDNSKYTLYLQMNSLRADDTALYFCARKGARGITGLDYWGQGTLVTVSS VL: DIQMTQSPSSLSASAGDRITITCRASQSISNYLNWYQQKPGKAPKLLIYAASSLQSGVPSRFSGSGSGTDFTLTISSLQPEDFASYYCRQNYNTPLTFGGGTKVEIK	ratio	12.2
5G RG1.D3.C2b (antibody, IgG1, V domains shown, also called MoB5G G1) VH: QVQLVESGGGVVQPGRSLRLSCVASGFTLSSYGMHWVRQAPGKGLEWVAVIWYDGSSKYYTDSVKGRFDISRDNSKNTLYLQMNILRAEDTAVYYCARETILIGGVPFDYWGQGTLVTVSS VL: EIVLTQSPGTLSLSPGERATLSCGASQSIRSNYLAWYQQKPGQAPRLLIYGASSRATGTPDRFSGSGSGTDFTLTITRLEPEDFALYYCQQYGRSYTFGQGTKLEIK	ratio	8.6

# input for lookup
What binding to mouse PAR4 ratio value was documented for this binder, 5H.RF2.A5b.D3.C2 (antibody, IgG2a, V domains shown, also called MoB5H F2) VH: QVQLQQWGAGLLKPSETLALTCAVYGGSLSDYYWSWIRQPPGKGLEWIGEINHSGTTNYNPSLKSRVTISVDTSKKQFSLKLSSVTAADTAVYYCAIEYSNSRGYYYGMDVWGQGTTVTVSS VL: DIQMTQSPSSLSASAGDRITITCRASQTISNYLNWYQQKPGKAPKLLIYAASSLQSGVPSRFSGSGSGTDFTLTISSLQPEDFASYYCRQNYNTPLTFGGGTKVEIK ?
10.4
